The reported numbers originate from patent US12545660B2.

EXPERIMENTAL TARGET: hFXR (Homo sapiens, UniProt Q96RI1)
Sequence (Q96RI1 1-486): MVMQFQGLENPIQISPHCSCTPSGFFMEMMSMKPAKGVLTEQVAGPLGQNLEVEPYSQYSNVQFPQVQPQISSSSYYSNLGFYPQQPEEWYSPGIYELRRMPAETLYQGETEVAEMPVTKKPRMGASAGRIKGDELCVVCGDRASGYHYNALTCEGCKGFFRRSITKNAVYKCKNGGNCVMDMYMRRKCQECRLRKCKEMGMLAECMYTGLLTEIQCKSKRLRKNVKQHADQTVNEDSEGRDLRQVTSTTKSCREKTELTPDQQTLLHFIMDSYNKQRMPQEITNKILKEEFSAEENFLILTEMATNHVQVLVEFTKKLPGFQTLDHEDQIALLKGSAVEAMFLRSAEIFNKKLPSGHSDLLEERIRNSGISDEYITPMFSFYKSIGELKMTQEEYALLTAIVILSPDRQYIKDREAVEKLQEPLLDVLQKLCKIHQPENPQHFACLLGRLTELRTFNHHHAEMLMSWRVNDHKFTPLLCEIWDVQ
Sequence (P19793 1-462 partner): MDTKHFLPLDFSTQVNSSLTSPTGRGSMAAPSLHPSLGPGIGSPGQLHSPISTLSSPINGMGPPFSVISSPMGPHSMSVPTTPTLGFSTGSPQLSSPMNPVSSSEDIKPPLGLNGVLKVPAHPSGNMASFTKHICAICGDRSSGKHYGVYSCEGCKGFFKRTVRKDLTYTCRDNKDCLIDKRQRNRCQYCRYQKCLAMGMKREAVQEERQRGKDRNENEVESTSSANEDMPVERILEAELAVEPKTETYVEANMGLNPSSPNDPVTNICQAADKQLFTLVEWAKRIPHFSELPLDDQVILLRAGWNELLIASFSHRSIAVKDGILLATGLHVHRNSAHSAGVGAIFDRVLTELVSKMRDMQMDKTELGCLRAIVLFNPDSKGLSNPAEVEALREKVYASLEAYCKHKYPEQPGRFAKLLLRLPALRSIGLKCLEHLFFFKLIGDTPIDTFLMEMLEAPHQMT
ASSAY COMMENT: In Vitro FXR Assay (TK)
CONDITION NOTES: CV-1 cells transfected with hFXR, hRXR, TK-ECRE-luc and pCMX-YFP; incubated 18 hrs; luminescence
MEASURE: EC50

Problem: Quickly give me recorded EC50 for COc1ccc(C23CCC(CN(c4cc(-c5cnn(C(C)(C)C)c5)ccn4)C(=O)[C@H]4CC[C@H](OC(=O)N5CC(O)C5)CC4)(CC2)CC3)cc1C [Compound 1]
Result: ≤ 10 nM
